List of bioavailability values.
Assay: Bioavailability in cynomolgus monkey at 1 mg/kg, iv by LC-MS/MS analysis
Type: ADME, organism-based, Macaca fascicularis
Conditions: in vivo
I'd appreciate it if you included the unit after the number.

Below: 2 compounds and their reported bioavailability.
So what's the measured bioavailability for this one? Cc1ccc(Oc2ccc3nc(COc4cccc(C(=O)O)c4)n(C)c3c2F)c(C)n1
76%

So what's the measured bioavailability for this one? COc1cc(Oc2ccc3nc(COc4cccc(C(=O)O)c4)n(C)c3n2)cc(C)n1
18%

Next compound, bioavailability to be filled in.
So what's the measured bioavailability for this one? Cc1cnc(Oc2ccc3nc(COc4cccc(C(=O)O)c4)n(C)c3c2)c(C)c1
89%
